- System: recombinant human CFTR carrying the premature stop codon (PTC) mutation G542X
- test.details: CFTR-PTC mutant translation readthrough, Nanoluc tagged CFTR luminescence (G542X cell line)
- Assay type: cell-based
- experimental.setup: fold over 10 μM G-418; in combination with G418; G542X cell line
measurement.name: CFTR G542X ACTIVITY Fold 10 μM G-418

Recorded CFTR G542X ACTIVITY Fold 10 μM G-418, per entry:
| compound | system.name | CFTR G542X ACTIVITY Fold 10 μM G-418 |
| --- | --- | --- |
| CC(=O)NCC1CN(c2ncc(OCc3c(Cl)cccc3Cl)cn2)CCO1 (stereo not shown) | recombinant human CFTR carrying the premature stop codon (PTC) mutation G542X | A′ (A′ = ≥10X) |
| OC1CCCN(c2ncc(OCc3c(Cl)cccc3Cl)cn2)C1 (stereo not shown) | recombinant human CFTR carrying the premature stop codon (PTC) mutation G542X | A′ (A′ = ≥10X) |
| CN(CCCO)c1ncc(OCc2c(Cl)cccc2Cl)cn1 | recombinant human CFTR carrying the premature stop codon (PTC) mutation G542X | B′ (B′ = ≥5X to <10X) |
| OCCC1(O)CCN(c2ncc(OCc3c(Cl)cccc3Cl)cn2)CC1 | recombinant human CFTR carrying the premature stop codon (PTC) mutation G542X | A′ (A′ = ≥10X) |
| OCC1CN(c2ncc(OCc3c(F)cccc3C(F)(F)F)cn2)CCO1 (stereo not shown) | recombinant human CFTR carrying the premature stop codon (PTC) mutation G542X | A′ (A′ = ≥10X) |

// next entry
CFTR G542X ACTIVITY Fold 10 μM G-418 recorded for this compound, NCC1CCCN(c2ncc(OCc3c(Cl)cccc3Cl)cn2)C1 (stereo not shown) , is A′ (A′ = ≥10X)

====

- System: recombinant human CFTR carrying the premature stop codon (PTC) mutation G542X
- test.details: CFTR-PTC mutant translation readthrough, Nanoluc tagged CFTR luminescence (G542X cell line)
- Format: cell-based
- experimental.setup: fold over 10 μM G-418; in combination with G418; G542X cell line
- Text: […]
measurement.name: CFTR G542X ACTIVITY Fold 10 μM G-418

Recorded CFTR G542X ACTIVITY Fold 10 μM G-418, per entry:
| compound | system.name | measurement.name | val |
| --- | --- | --- | --- |
| FC1(F)CCN(c2ncc(OCc3c(Cl)cccc3C(F)(F)F)cn2)C1 | recombinant human CFTR carrying the premature stop codon (PTC) mutation G542X | CFTR G542X ACTIVITY Fold 10 μM G-418 | A′ (A′ = ≥10X) |
| NS(=O)(=O)N1CCN(c2ncc(OCc3c(Cl)cccc3Cl)cn2)CC1 | recombinant human CFTR carrying the premature stop codon (PTC) mutation G542X | CFTR G542X ACTIVITY Fold 10 μM G-418 | A′ (A′ = ≥10X) |
| OCC1CN(c2ncc(OCc3c(Cl)cccc3Cl)cn2)CCN1 (stereo not shown) | recombinant human CFTR carrying the premature stop codon (PTC) mutation G542X | CFTR G542X ACTIVITY Fold 10 μM G-418 | A′ (A′ = ≥10X) |
| CC(=O)N1CCN(c2ncc(OCc3c(C)cccc3C(F)(F)F)cn2)CC1CN (racemic) | recombinant human CFTR carrying the premature stop codon (PTC) mutation G542X | CFTR G542X ACTIVITY Fold 10 μM G-418 | C′ (C′ = <5X) |
| O=C(O)C1CN(c2ccc(OCc3c(Cl)cccc3C(F)(F)F)cn2)CCO1 (stereo not shown) | recombinant human CFTR carrying the premature stop codon (PTC) mutation G542X | CFTR G542X ACTIVITY Fold 10 μM G-418 | C′ (C′ = <5X) |

// next entry
CFTR G542X ACTIVITY Fold 10 μM G-418 recorded for this compound, COc1cccc(Br)c1COc1ccc(N2CC(CO)OC2=O)cc1 (stereo not shown) , is A′ (A′ = ≥10X)

FYI, the data here is from patent US20250228865A1.
